# System Name: thymidylate synthase (Mus musculus, UniProt P07607)
# Construct: obtained in partially purified form from L1210 mouse leukaemia cells; endogenous in cells; host or cells: L1210 mouse leukaemia cells (enzyme partially purified)
# Sequence (P07607 whole entry): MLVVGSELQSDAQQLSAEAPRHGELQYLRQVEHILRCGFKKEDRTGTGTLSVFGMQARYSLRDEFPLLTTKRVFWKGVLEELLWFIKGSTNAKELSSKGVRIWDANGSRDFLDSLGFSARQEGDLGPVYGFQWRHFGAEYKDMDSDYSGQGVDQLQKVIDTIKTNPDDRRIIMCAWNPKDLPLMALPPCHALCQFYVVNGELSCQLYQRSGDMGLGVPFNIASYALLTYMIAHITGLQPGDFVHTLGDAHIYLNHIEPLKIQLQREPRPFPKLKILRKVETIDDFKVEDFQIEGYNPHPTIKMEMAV
# Test: Test (a): in vitro inhibition of the enzyme thymidylate synthase (partially purified from L1210 mouse leukaemia cells)
# Assay type: biochemical
# Test Settings: Test (a), thymidylate synthase; read-out: IC50
pIC50: −log10 of the molar value.
Assignment: determine reported pIC50 for the given compounds.

C#CCN(Cc1cc2c(=O)[nH]c(C)nc2cc1C)c1ccc(C(=O)NC(CO)c2cccc([N+](=O)[O-])c2)cc1 (centres unmarked) [Example 14, compound no. 2]    ~7.70

Field request: pIC50 | item: C#CCN(Cc1ccc2nc(C)[nH]c(=O)c2c1)c1ccc(C(=O)NC(c2ccccc2)c2ccccc2)cc1 [Example 7]
~5.70
